# System: SW-620 colon
# MEASUREMENT_DESCRIPTION: NCI tumour cell line growth inhibition, 48 h
QUANTITY_KIND: TGI (µM)

INSERT INTO assay_data (molecule, qualifier_symbol, reported_value) VALUES
  ('CCOC(=O)C(SCCO)C(C(=O)OCC)n1cnc2c(N)ncnc21 (stereo not given)', '=', 12.5),
  ('O=C1C(=O)c2c(oc(=O)c3ccccc23)-c2ccccc21', '>', 25),
  ('CCCCOC(=O)NC(=O)c1cn(CCCOC(=O)CCCCCCCCC(=O)OCCCn2cc(C(=O)NC(=O)OCCCC)c(=O)[nH]c2=O)c(=O)[nH]c1=O', '>', 100),
  ('COc1cc2c(cc1OCCCOc1cc3c(cc1OC)C(=O)N1C[C@H](F)C[C@H]1C=N3)N=C[C@@H]1C[C@@H](F)CN1C2=O', '=', 20),
  ('COc1ccc2cc(CNCCCCCCCCCCCCNCc3ccc4cc(OC)ccc4c3)ccc2c1', '>', 51.9),
  ('CC1=C2[C@@H](CC1)[C@]1(C)O[C@@](C3CCCCC3)(C[C@H]1OC(=O)CO)[C@H]2OC(=O)/C=C/c1ccccc1', '=', 25.1),
  ('CC/C(C)=C1\CCC(CN2CCOCC2)C1=O (stereo not given)', '=', 34.5),
  ('CCOC(=O)C1=CN/C(=C(/C)C(=O)OC)SC1C(=O)OCC (stereo not given)', '>', 100),
  ('CCN(CC)C1Oc2cc3c(cc2C(c2ccc(OC)cc2)C1C)OCO3 (stereo not given)', '>', 100),
  ('CCOC(=O)C(Cc1c[nH]c2ccc(N)cc12)(NC(C)=O)C(=O)OCC', '>', 1000),
  ('CSc1nc(C)c2c(n1)SCC2', '>', 10),
  ('CNc1c2cccc(C)c2nc2c(C(=O)NCCN(C)C)cccc12', '=', 0.424),
  ('COc1ccc(N2C(=O)CC(Cl)C2=O)cc1 (stereo not given)', '=', 35.2),
  ('CC(=O)C(=[N+]=[N-])C(=O)NCC#N', '>', 10),
  ('CCN(CC)CCC(=O)NC1c2ccc(Cl)cc2Oc2c(C)cccc21 (stereo not given)', '=', 33.2),
  ('COC(=O)C(C)NP(=O)(N1CC1)N1CC1 (stereo not given)', '>', 100),
  ('CC1(C)C2CCC3=C(CCC4(C)C5C[C@](C)(C(=O)O)CC[C@]5(C)CC[C@]34C)[C@@]2(C)CC[C@@H]1O (stereo not given in full)', '=', 32.3),
  ('CO[C@@H]1/C=C\C=C(/C)C(=O)NC2=CC(=O)C(NCCN(C)C)=C(C[C@@H](C)C[C@@H](OC)[C@@H](O)[C@H](C)/C=C(\C)[C@H]1OC(N)=O)C2=O', '=', 20.6),
  ('COC(=O)c1s/c(=N\C(=S)N(C)C)n(-c2ccccc2)c1C(=O)OC', '>', 100),
  ('CC1(C)CN=C(c2ccc3c(c2)Cc2cc(C4=NCC(C)(C)N4)ccc2-3)N1', '>', 100);

----------
Overview of recorded TGI for various molecules
# Test system: SN12C renal
# MEASUREMENT_DESCRIPTION: NCI tumour cell line growth inhibition, 48 h
QUANTITY_KIND: TGI

INSERT INTO measurements (molecule, quantity_kind, reported_value) VALUES
  ('Cc1cc(C)nc(NS(=O)(=O)c2ccc(NNc3c4ccccc4nc4c(C(=O)Nc5ccc(S(=O)(=O)Nc6ncccn6)cc5)cccc34)cc2)n1', 'TGI', '75.1 µM'),
  ('O=C1OC(CC(=O)c2ccc(Cl)c(Cl)c2)C(Cl)=C1Cl (stereo unspecified)', 'TGI', '> 100 µM'),
  ('COc1cc(Cl)c2c3c(c(C(C)=O)oc13)CCC2', 'TGI', '> 100 µM'),
  ('CC(=O)O[C@H]1CC[C@H]2[C@@H]3CCC4C(C)=NNC(=O)C4[C@H]3CC[C@]12C (stereo partly specified)', 'TGI', '> 100 µM'),
  ('O=C1c2ccccc2C(=O)N1CCCSc1ccccc1', 'TGI', '> 100 µM'),
  ('Cc1ccc2c(c1)C(=O)/C(=N/Nc1ccc(Cl)cc1)CCO2', 'TGI', '> 100 µM'),
  ('C=C1C(=O)O[C@H]2[C@H]1CC/C(CNC(=O)c1cc3cc(OC)ccc3[nH]1)=C\CC[C@@]1(C)O[C@@H]21', 'TGI', '4.87 µM'),
  ('COc1cc(Nc2nccc(Nc3ccc4c(C)[nH]nc4c3)n2)cc(OC)c1OC', 'TGI', '20.8 µM'),
  ('CCNC(=O)CCN(C(=O)O)S(=O)(=O)c1ccc(NC(=O)c2ccccc2)cc1', 'TGI', '> 100 µM'),
  ('CC(=O)[O-].CC(=O)[O-].[Pt+2].c1cscn1.c1cscn1', 'TGI', '> 100 µM'),
  ('Cc1ccccc1NC(=O)N/C(N)=N/c1nc(-c2cccc([N+](=O)[O-])c2)cs1', 'TGI', '30.5 µM'),
  ('Cn1ccnc1CC(C)(O)c1ccccc1 (stereo unspecified)', 'TGI', '> 100 µM'),
  ('CN[C@@H](C)C(=O)N[C@H](C(=O)N1CCC[C@H]1C(=O)N[C@H]1c2ccccc2C[C@H]1OCC#CC#CCO[C@@H]1Cc2ccccc2[C@@H]1NC(=O)[C@@H]1CCCN1C(=O)[C@@H](NC(=O)[C@H](C)NC)C1CCCCC1)C1CCCCC1', 'TGI', '21.6 µM'),
  ('COc1cc(C(=O)/C(C)=C/c2c[nH]c3ccccc23)cc(OC)c1OC', 'TGI', '> 100 µM'),
  ('COc1ccc(NC(=O)C(=O)C(C(=O)c2ccccc2)C2OC(=O)c3ccccc32)c([N+](=O)[O-])c1 (stereo unspecified)', 'TGI', '> 100 µM'),
  ('Ic1ncnc2c1ncn2C1CCCO1 (stereo unspecified)', 'TGI', '> 100 µM');
